B1: GMCL1 (parent)
chain: RPDTGDDAAGHGFCYCAGSHKRKR

# Variants of: B1
# experimental.protocol: protein stability index of a GFP-peptide fusion (GPS, HEK-293T) (PSI 1-6); higher = more stable;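 also: lentivirally expressed fusions sorted by FACS into six bins by GFP to DsRed ratio, PSI derived from sequencing read proportions per bin multiplied by bin number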
# protocol.conditions: c terminus: a fixed tail appended
test.readout: protein stability index
One number for each entry.

As a guide, the following entries are already answered.
INSERT INTO measurements (sequence_content, measured) VALUES
  ('RPDTGDTAAGHGFCYCAGSHKRKR [D7T]', 3.49),
  ('RPDPGDDAAGHGFCYCAGSHKRKR [T4P]', 2.96),
  ('RPDTGDDAAGHGFCYLAGSHKRKR [C16L]', 4.11),
  ('RPDTGDDAAGHGFCYCAGTHKRKR [S19T]', 3.65);

For the 6 variants below, give their protein stability index values.
1. RPDTGDDAAGHGFCYCAESHKRKR [G18E]
2. RPDTGDDAAGHQFCYCAGSHKRKR [G12Q]
3. RPDTGDDAAGHGFCYCAGSHKRLR [K23L]
4. RPDTGDDAAGHGHCYCAGSHKRKR [F13H]
5. RPDTADDAAGHGFCYCAGSHKRKR [G5A]
6. RPDTGDDNAGHGFCYCAGSHKRKR [A8N]

## Result
[3.6, 3.16, 2.16, 3.86, 3.37, 2.96]

Hello, I would appreciate it if you could give protein stability index for each entry below.
1. RPDTGDDAAGHGFDYCAGSHKRKR [C14D]
2. RPDTGDDAAGHGFCYCAPSHKRKR [G18P]
3. RPDTGDDAAGHGFCYCAGWHKRKR [S19W]
4. RPDTGDDAAGHGFCYCAGSHKRKG [R24G]
5. RPDTGDDAAGHGFCYCAGSHKRMR [K23M]
6. RPDTGDDAAGHGFCYCAGSQKRKR [H20Q]
7. RPDTGDDAAGHGFCCCAGSHKRKR [Y15C]
8. RPDTGDDAAGHGFCYCAGSHARKR [K21A]

## Result
[4.75, 3.53, 2.45, 3.4, 2.32, 3.59, 2.68, 3.07]

Below is a list of variants. For each, state its recorded protein stability index.
1. RPDTGDDCAGHGFCYCAGSHKRKR [A8C]
2. RPDTGDMAAGHGFCYCAGSHKRKR [D7M]
3. RPDTGDDAAGHGFCYIAGSHKRKR [C16I]
4. RPDTGDDARGHGFCYCAGSHKRKR [A9R]
5. RPDTGDDAAGHGFCYCAGSMKRKR [H20M]

## Result
[3.23, 3.44, 4.57, 3.46, 3.03]

Provide reported protein stability index for each item, in the same order as listed.
1. RPDTGHDAAGHGFCYCAGSHKRKR [D6H]
2. RPDTGDDAAGWGFCYCAGSHKRKR [H11W]
3. RPDTGDDAAGHGACYCAGSHKRKR [F13A]
4. RPDTGQDAAGHGFCYCAGSHKRKR [D6Q]
5. RPDTGDDAAGHGFCYCAGSHKRQR [K23Q]

## Result
1. 2.8
2. 2.95
3. 3.12
4. 3.46
5. 2.92
